The binders listed here are annotated with their FLIPR A549 cells IC50.
- assayedSystem: T1, Human PAR-2 on cells (human, UniProt P55085 26-397)
- T1 sequence: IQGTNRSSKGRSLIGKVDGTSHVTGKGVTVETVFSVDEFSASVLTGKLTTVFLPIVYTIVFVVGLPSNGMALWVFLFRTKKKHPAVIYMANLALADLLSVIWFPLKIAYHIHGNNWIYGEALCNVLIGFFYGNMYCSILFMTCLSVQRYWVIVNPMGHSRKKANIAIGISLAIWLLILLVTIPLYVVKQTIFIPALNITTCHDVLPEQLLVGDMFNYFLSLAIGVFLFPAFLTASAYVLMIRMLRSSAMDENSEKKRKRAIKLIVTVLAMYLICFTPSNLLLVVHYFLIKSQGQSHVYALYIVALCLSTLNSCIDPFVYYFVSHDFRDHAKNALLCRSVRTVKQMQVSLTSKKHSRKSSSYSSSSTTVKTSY
- assayMethodText: cell-based or functional assay
propertyName: FLIPR A549 cells IC50

binder	propertyName	valueMeasured
Ab5149 IgG4_Pro (cross-cloned: light chain of Ab4999 with heavy chain of Ab4997) (antibody, V domains shown, IgG4_Pro format) VH: QVQLVESGGGLVQPGGSLRLSCAASGFTFSSYAMNWVRQAPGKGLEWVSAISYNGKLKGYADSVKGRFTISRDNSKNTLYLQMNSLRAEDTAVYYCARIQNDPMDVWGQGTLVTVSS VL: DIELTQPPSVSVAPGQTARISCSGDNLGKKYVQWYQQKPGQAPVLVIYDDSNRPSGIPERFSGSNSGNTATLTISGTQAEDEADYYCQTWDYSSIRDETNVFGGGTKLTVLG	FLIPR A549 cells IC50	3.3 nM
Ab5151 IgG4_Pro (cross-cloned: light chain of Ab4999 with heavy chain of Ab5007) (antibody, V domains shown, IgG4_Pro format) VH: QVQLVESGGGLVQPGGSLRLSCAASGFTFSSYAMNWVRQAPGKGLEWVSAISFSGHLTGYADSVKGRFTISRDNSKNTLYLQMNSLRAEDTAVYYCARIQNDPMDVWGQGTLVTVSS VL: DIELTQPPSVSVAPGQTARISCSGDNLGKKYVQWYQQKPGQAPVLVIYDDSNRPSGIPERFSGSNSGNTATLTISGTQAEDEADYYCQTWDYSSIRDETNVFGGGTKLTVLG	FLIPR A549 cells IC50	4 nM
Ab5005 IgG4_Pro (antibody, V domains shown, IgG4_Pro (human IgG4 constant regions, Ser241Pro hinge), lambda; also called IgG4p Ab5005) VH: QVQLVESGGGLVQPGGSLRLSCAASGFTFSSYAMNWVRQAPGKGLEWVSTISYSSSATSYADSVKGRFTISRDNSKNTLYLQMNSLRAEDTAVYYCARIQNDPMDVWGQGTLVTVSS VL: DIELTQPPSVSVAPGQTARISCSGDNLGKKYVQWYQQKPGQAPVLVIYDDSNRPSGIPERFSGSNSGNTATLTISGTQAEDEADYYCQSWALVGSSESNVFGGGTKLTVLG	FLIPR A549 cells IC50	2.5 nM
